Literature-derived IC50 for Hematopoietic prostaglandin D synthase (Homo sapiens) follows.
Give bare numbers, in nM.

Previously resolved entries follow.
O=C(Nn1ccc2ccccc21)c1cnc(-c2cccc(F)c2)nc1: 5
Cc1[nH]c(C(=O)NCC2=NNC(=O)CC2)c(C)c1-c1nc2cc(C(=O)c3ccccc3)ccc2[nH]1: 136
COc1cccc(-c2ncc(C(=O)NN3CC(C)=NNC3=O)cn2)c1: 175
CCOC(=O)CCNC(=O)c1[nH]c(C)c(-c2nc3cc(C(=O)c4ccccc4)ccc3[nH]2)c1C: 874
CN1CCC(NC(=O)c2cnc(-c3ccccc3)nc2)CC1: 96
O=C(c1ccccc1)c1ccc2[nH]c(-c3ccc(C(=O)NCc4ccc5c(c4)OCO5)o3)nc2c1: 2430

Could you report IC50 for every entry in the following list?
1. CNS(=O)(=O)c1cccc(CNC(=O)c2cnc(-c3cccc(F)c3)nc2C)c1
2. NC(=O)c1ccc(-c2nc3cc(C(=O)c4ccccc4)ccc3[nH]2)o1

1: 106; 2: 4360

* * *

Literature-derived pIC50 for Hematopoietic prostaglandin D synthase (Homo sapiens, UniProt O60760) follows.
Answers are plain numbers, as −log10 of the molar value.

Previously resolved entries follow.
Cc1nc(-c2cccnc2)ncc1C(=O)Nn1ccc2ncccc21: 7.85
O=C(NCc1cccc(S(=O)(=O)NC2CC2)c1)c1cnc(-c2cccc(F)c2)nc1: 6.88

Could you report pIC50 for every entry in the following list?
1. CCOC(=O)c1[nH]c(C)c(-c2nc3cc(Oc4ccccc4)ccc3[nH]2)c1C
2. Cc1nc(-c2ccccn2)ncc1C(=O)NN1CCc2ccccc21
3. Cc1[nH]c(C(=O)N2CCOCC2)c(C)c1-c1nc2cc(C(=O)c3ccccc3)ccc2[nH]1

6.68
8.52
6.23
